# Target Entity: T1, glutathione S-transferase/human androgen receptor DNA binding domain (amino acids 505-635) (human), P10275
# T1 chain: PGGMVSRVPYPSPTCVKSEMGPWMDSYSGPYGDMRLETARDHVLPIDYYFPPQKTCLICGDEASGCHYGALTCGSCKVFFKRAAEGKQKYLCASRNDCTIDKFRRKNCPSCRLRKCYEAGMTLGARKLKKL
pIC50: −log10 of the molar value.
Recorded Metric: pIC50

INSERT INTO results (binder, experimental_result) VALUES
  ('H-YGRKKRRQRRRGGGGLTIESSSDEE-NH2 [H-…-NH2]', 5.19);

Data origin, for the record: patent US20030045680A1
